Assay: Metabolic stability in human liver microsomes, Method B8
Type: in vitro ADME
Conditions: human liver microsomes 0.8 mg/mL, 5 μM compound, 37° C.
Excerpt: B8. Metabolic Stability in Human Liver Microsomes The liver is the primary site for phase I (oxidation) and phase II (glucuronidation) enzymatic activity responsible for xenobiotic metabolism. Human liver microsomes are used as in vitro screen of metabolic activity for candidate drugs. Similar studies can be run with microsomes from other species, such as those used for in vivo studies, to determine any significant species differences in the stability profile. […]
TEST_READOUT: HLM, metabolic stability in human liver microsomes (μL/min/mg protein)

{"COMPOUND": "CC[C@@H]1C#Cc2ccccc2OCCN[C@@H](C(C)C)C(=O)N(C)[C@@H](C(C)O)C(=O)N[C@H](Cc2c[nH]c3ccccc23)C(=O)N1 (some centres unmarked) [Compound 1754]", "READOUT_UNIT": "μL/min/mg protein", "READOUT_NUMBER": 43.7}
{"COMPOUND": "CC(C)[C@@H]1NCCOc2ccccc2CC[C@@H](C)NC(=O)[C@@H](Cc2c[nH]c3ccccc23)NC(=O)[C@H](C(C)O)N(C)C1=O (some centres unmarked) [Compound 1375]", "READOUT_UNIT": "μL/min/mg protein", "READOUT_NUMBER": 58.4}
{"COMPOUND": "CC(C)[C@@H]1NCC2CCc3cccc(c3O2)CCCNC(=O)[C@@H](Cc2ccccc2)NC(=O)[C@H](C(C)O)N(C)C1=O (some centres unmarked) [Compound 1777]", "READOUT_UNIT": "μL/min/mg protein", "READOUT_NUMBER": 39.6}
{"COMPOUND": "CC(C)[C@@H]1NCCOc2c(F)cccc2CCCNC(=O)[C@@H](Cc2ccccc2)NC(=O)[C@H](C(C)O)N(C)C1=O (some centres unmarked) [Compound 1376]", "READOUT_UNIT": "μL/min/mg protein", "READOUT_NUMBER": 32.2}

A: CCC(C)C1NCCOc2ccccc2C=CCNC(=O)C(Cc2ccccc2C)NC(=O)C(C(C)O)N(C)C1=O (centres unmarked) [Compound 1737]
B: CC(O)[C@H]1C(=O)N[C@H](Cc2ccccc2)C(=O)NCCCc2cccc3c2OC(CC3)CN[C@@H](C2CC2)C(=O)N1C (some centres unmarked) [Compound 1778]
Of A and B , which one carries the higher reported HLM, metabolic stability in human liver microsomes? Answer = label.
A

a: CC(C)C1NCCOc2cc(F)ccc2C=CCNC(=O)C(Cc2ccc(F)cc2)NC(=O)C(C(C)O)N(C)C1=O (centres unmarked) [Compound 1690]
b: CCC(C)C1NCCOc2ccccc2C=CCNC(=O)C(Cc2ccccc2Cl)NC(=O)C(C(C)O)N(C)C1=O (centres unmarked) [Compound 1738]
Of a and b , which one carries the higher reported HLM, metabolic stability in human liver microsomes? Answer = label.
b

a: CC(O)[C@H]1C(=O)N[C@H](Cc2ccccc2)C(=O)NCC#Cc2c(F)cccc2OCCN[C@@H](C2(C)CC2)C(=O)N1C (some centres unmarked) [Compound 1876]
b: CC[C@@H]1CCc2c(F)cccc2OCCN[C@@H](C(C)C)C(=O)N(C)[C@@H](C(C)O)C(=O)N[C@H](Cc2c[nH]c3ccccc23)C(=O)N1 (some centres unmarked) [Compound 1725]
Of a and b , which one carries the higher reported HLM, metabolic stability in human liver microsomes? Answer = label.
b
(b: 66.5 μL/min/mg protein, a: 30.9 μL/min/mg protein)

P: Cc1cccc(C[C@H]2NC(=O)[C@H](C(C)O)N(C)C(=O)[C@H](C(C)C)NCCOc3ccccc3CC[C@@H](C)NC2=O)c1 (some centres unmarked) [Compound 1373]
Q: CC(C)[C@@H]1NCCOc2cc(F)ccc2CC[C@@H](C)NC(=O)[C@@H](Cc2ccccc2)NC(=O)[C@H](C(C)O)N(C)C1=O (some centres unmarked) [Compound 1391]
R: CC(O)[C@H]1C(=O)N[C@H](Cc2c[nH]c3ccccc23)C(=O)N[C@H](C)C#Cc2ccccc2OCCN[C@@H](C2(C)CC2)C(=O)N1C (some centres unmarked) [Compound 1713]
# sort list by recorded HLM, metabolic stability in human liver microsomes, greatest to least Kindly provide the labels arranged according to the requested ordering.
R, P, Q
